- Tested on: EKVX NSCLC
- measurement.protocol: NCI tumour cell line growth inhibition, 48 h; in the data active = GI50 below about 0.43 µM; inactive = the rest
# valid calls are active, inactive; nothing else

OC1CSSC1Cn1cnc2c(Nc3ccc(OCc4cccc(F)c4)c(Cl)c3)ncnc21 (centres undefined)	inactive
Nc1nc(-n2c(-c3ccccc3)nc3c(Br)cc(Br)cc3c2=O)nnc1-c1cccc(Cl)c1Cl	inactive
COC1/C=C/OC2(C)Oc3c(C)c(O)c4c(O)c(c(/C=N/Nc5ccc([N+](=O)[O-])cc5[N+](=O)[O-])c(O)c4c3C2=O)NC(=O)C(C)=C/C=C/C(C)C(O)C(C)C(O)C(C)C(OC(C)=O)C1C (centres undefined)	inactive
O=C(Nc1ccc(F)cc1)Nc1ccc(Cl)c([N+](=O)[O-])c1	inactive
O=C(Nc1ccc(-n2ccc3c(NC(=O)c4ccccc4)nccc32)cc1)c1ccc(Cl)c(C(F)(F)F)c1	inactive
CC(=O)[CH-]C(=O)c1ccccc1.CC(=O)[CH-]C(=O)c1ccccc1.CN(C)c1ccc([O-])cc1.CN(C)c1ccc([O-])cc1.Cl.[Ti+4]	inactive
OCCN(CCO)c1ncnc2c1ncn2Cc1ccc(CCl)cc1	inactive
CC(=O)OC1OC([C@@H]2c3cccc(O)c3C(=O)c3c(O)cc(C)cc32)C(O)C(O)C1O (some centres undefined)	active

In this assay, the call recorded for C=C(C)C(OC)C(O)CC1(C)CC(O)CC(C)(C2CCC3OC(C4(C)CCC(Br)C(C)(C)O4)CCC3(C)O2)O1 (centres undefined) was what? inactive

From: PubChem BioAssay (NCI)
